Listed below: pIC50 values for each entry.
System Under Test: T1, recombinant biotinylated human PAR2 extracellular domain (residues 1-75), N-terminal AviTag, C-terminal Flag … (human, UniProt P55085 26-75, biotin on the AviTag (enzymatic biotinylation))
T1 construct: also called Bio-human-PAR2 ECD; human PAR2 ECD; not shown: N-terminal AviTag (Avidity LLC); C-terminal Flag and poly Histidine tags
T1 sequence (P55085 26-75): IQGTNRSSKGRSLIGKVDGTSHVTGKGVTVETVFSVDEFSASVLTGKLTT
Test Method Notes: HTRF competition with Dylight650-Par0067 IgG, pH 7.4, IgG
The read-out pIC50 is expressed as -log10 of concentration in moles per litre.

// below: answered binders
Challenge: Name the recorded pIC50 of the binder listed here: PaB670141 IgG (antibody, V domains shown, IgG1-TM (L234F, L235E, P331S), human lambda light chain) VH: EVQLLESGGGLVQPGGSLRLSCAASGFTFSSYAMNWVRQAPGKGLEWVSTISYSGSLISYADSVKGRFTISRDNSKNTLYLQMNSLRAEDTAVYYCARINHDPMDVWGQGTLVTVSS VL: SIELTQPPSVSVSPGQTASITCSGDNLGKKYVQWYQQKPGQSPVLVIYDDSNRPSGIPERFSGSNSGNTATLTISGTQAMDEADYYCQTWDGNPTHGETNVFGGGTKLTVL
Response given: 8.62

Challenge: Specify reported pIC50 for the binder shown: PaB670156 IgG (antibody, V domains shown, IgG1-TM (L234F, L235E, P331S), human lambda light chain) VH: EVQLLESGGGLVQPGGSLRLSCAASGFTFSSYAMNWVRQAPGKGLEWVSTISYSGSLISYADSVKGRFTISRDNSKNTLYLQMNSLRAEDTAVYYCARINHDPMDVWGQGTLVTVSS VL: SIELTQPPSVSVSPGQTASITCSGDNLGKKYVQWYQQKPGQSPVLVIYDDSNRPSGIPERFSGSNSGNTATLTISGTQAMDEADYYCQTWDGHHHTGETNHFGGGTKLTVL
Response given: 8.15

---
Challenge: Report pIC50 for Par0067 IgG (antibody, V domains shown, IgG1-TM (L234F, L235E, P331S), human lambda light chain; also called ZZ15D2-D02; parent Par0067 IgG) VH: EVQLLESGGGLVQPGGSLRLSCAASGFTFSSYAMNWVRQAPGKGLEWVSTISYSGSLISYADSVKGRFTISRDNSKNTLYLQMNSLRAEDTAVYYCARINNDPMDVWGQGTLVTVSS VL: SIELTQPPSVSVSPGQTASITCSGDNLGKKYVQWYQQKPGQSPVLVIYDDSNRPSGIPERFSGSNSGNTATLTISGTQAMDEADYYCQTWDGNPTTGETNVFGGGTKLTVL
Response given: 9.08
